- TARGET OR TEST SYSTEM: T1, human LAG-3 on cells (HEK293-hLAG-3 stable cell line) (human, UniProt P18627 23-525)
- T1 sequence: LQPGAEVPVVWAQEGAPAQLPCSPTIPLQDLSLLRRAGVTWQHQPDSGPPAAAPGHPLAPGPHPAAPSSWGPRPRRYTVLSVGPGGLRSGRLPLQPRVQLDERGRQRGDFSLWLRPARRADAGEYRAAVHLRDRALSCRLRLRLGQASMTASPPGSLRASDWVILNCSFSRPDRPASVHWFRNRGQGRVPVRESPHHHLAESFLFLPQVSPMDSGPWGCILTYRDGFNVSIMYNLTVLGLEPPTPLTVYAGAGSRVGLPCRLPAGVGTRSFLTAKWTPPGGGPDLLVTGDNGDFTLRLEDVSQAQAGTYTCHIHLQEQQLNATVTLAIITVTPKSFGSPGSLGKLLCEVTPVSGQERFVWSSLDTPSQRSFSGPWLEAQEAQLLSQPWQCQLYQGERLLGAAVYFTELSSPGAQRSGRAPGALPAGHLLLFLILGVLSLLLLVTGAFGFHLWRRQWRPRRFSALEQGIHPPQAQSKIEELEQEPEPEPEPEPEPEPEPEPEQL
- ASSAY SUMMARY: FACS, HEK293-hLAG-3, antibody 0.064 nM
QUANTITY: Mean fluorescence intensity

binder="556F6B8-12 humanized antibody (antibody, V domains shown) VH: RVQLQESGPGLVKPSETLSLTCTVSGFSLIKYGVHWIRQPPGKGLEWIGVIWRGGITDYNAAFMSRVTISKDTSKSQVSLKLSSVTAADTAVYYCAKWDGPLAMDYWGQGTTVTVSS VL: DIVLTQSPSFLSASVGDRVTITCKASQDVGTTVAWYQQKPGKSPKLLIYWASTRHTGVPSRFSGSGSGTEFTLTISSLQPEDFATYYCQQYSSYPYTFGQGTKLEIK" reading=15
binder="556F6B8-3 humanized antibody (antibody, V domains shown) VH: QVQLQESGPGLVKPSETLSLTCTVSGFSLIKYGVHWIRQPPGKGLEWIGVIWRGGITDYNAAFMSRVTISKDTSKSQVSLKLSSVTAADTAVYYCARWDGPLAMDYWGQGTTVTVSS VL: DIQLTQSPSFLSASVGDRVTITCKASQDVGTTVAWYQQKPGKAPKLLIYWASTRHTGVPSRFSGSGSGTEFTLTISSLQPEDFATYYCQQYSSYPYTFGQGTKLEIK" reading=21
binder="556F6B8-4 humanized antibody (antibody, V domains shown) VH: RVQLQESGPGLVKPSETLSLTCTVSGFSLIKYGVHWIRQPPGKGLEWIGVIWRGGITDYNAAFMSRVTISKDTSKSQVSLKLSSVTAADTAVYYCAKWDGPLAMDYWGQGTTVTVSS VL: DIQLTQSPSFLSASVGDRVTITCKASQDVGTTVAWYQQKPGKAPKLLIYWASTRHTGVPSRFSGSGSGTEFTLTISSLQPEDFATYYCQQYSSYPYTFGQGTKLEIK" reading=14
